B1: KCNK9 (parent)
chain: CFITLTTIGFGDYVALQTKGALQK

Variants of: B1
Experiment: protein stability index of a GFP-peptide fusion (GPS, HEK-293T) (PSI 1-6); higher = more stable;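 also: lentivirally expressed fusions sorted by FACS into six bins by GFP to DsRed ratio, PSI derived from sequencing read proportions per bin multiplied by bin number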
Settings: c terminus: a fixed tail appended
Item-by-item account of protein stability index
Please give the numeric answer without any surrounding text.

// known answers, use as guide
[[record]]
sequencechange = "T4F"
measuredvalue = 2.95

[[record]]
sequencechange = "I8R"
measuredvalue = 1.67


(Q) Give protein stability index for Y13H
(A) 2.07

(Q) Give protein stability index for G11F
(A) 3.25

(Q) Give protein stability index for I3S
(A) 2.11

(Q) Give protein stability index for A21K
(A) 3.05

(Q) Give protein stability index for V14T
(A) 2.64
